The reported measurements were obtained from patent US20230381142A1.

procedureDetails: GSK inMac assay, host cell toxicity readout (LD MAC)
Assay type: cell-based, human
conditionContext: human; host THP-1 cells
For each entry below, report its CC50 value.
Field: numeric (µM). Do not append units.

Output measured CC50 for this item: COc1ccc(N2C(=O)c3[nH]nc(CC(C)C)c3[C@H]2c2cccc(C(F)(F)F)c2)cn1
15.8

Output measured CC50 for this item: CC(C)Cc1n[nH]c2c1C(C1CCCCC1)N(c1ccc(Br)cc1)C2=O (centres unmarked)
7.9

Output measured CC50 for this item: COc1ccc(N2C(=O)c3nn(C)c(CC(C)C)c3C2c2ccc(F)cc2)cc1 (centres unmarked)
25.1

Output measured CC50 for this item: COc1ccc(N2C(=O)c3[nH]nc(CC(C)C)c3[C@H]2c2ccccc2Br)cn1
25.1

Output measured CC50 for this item: CC(C)Cc1n[nH]c2c1C(c1ccccc1Cl)N(c1ccc(C(C)(C)C)cc1)C2=O (centres unmarked)
7.9

Output measured CC50 for this item: COc1ccc(N2C(=O)c3[nH]nc(CC(C)C)c3C2c2ccc(C)s2)cc1 (centres unmarked)
20

Output measured CC50 for this item: COc1ccccc1N1C(=O)c2[nH]nc(CC(C)C)c2C1C1CCCCC1 (centres unmarked)
25.1

Output measured CC50 for this item: CC(C)Cc1n[nH]c2c1C(c1ccccc1Br)N(c1ccc3c(c1)OCC(=O)N3)C2=O (centres unmarked)
20

Output measured CC50 for this item: C#CCn1nc2c(c1CC(C)C)C(c1ccc(F)cc1)N(c1ccc(OC)cc1)C2=O (centres unmarked)
25.1

Output measured CC50 for this item: COc1cc(N2C(=O)c3[nH]nc(CC(C)C)c3C2c2ccc(F)cc2)ccc1F (centres unmarked)
15.8

Output measured CC50 for this item: COc1ccc(N2C(=O)c3[nH]nc(CC(C)C)c3[C@H]2c2ccc(F)cc2)cc1
25.1

Output measured CC50 for this item: CC(C)Cc1n[nH]c2c1C(c1cccc(C(F)(F)F)c1)N(c1ccc3c(c1)OCO3)C2=O (centres unmarked)
20

Output measured CC50 for this item: CC(C)Cc1n[nH]c2c1C(c1ccccc1Cl)N(c1ccc(F)cc1)C2=O (centres unmarked)
20

Output measured CC50 for this item: CC(C)Cc1n[nH]c2c1C(c1ccc(F)cc1)N(c1ccc(N3CCCC3=O)cc1)C2=O (centres unmarked)
20

Output measured CC50 for this item: CC(C)Cc1n[nH]c2c1C(c1cccc(C(F)(F)F)c1)N(c1ccc(-n3ccnc3)cc1)C2=O (centres unmarked)
39.8

Output measured CC50 for this item: COc1ncc(N2C(=O)c3[nH]nc(CC(C)C)c3C2c2ccc(F)cc2)cc1C (centres unmarked)
20
